Provide the reported viability, T/C of each item.
# Test system: MDA-MB-468 spheroids with HUVEC/MSC, viability
# assay protocol: Anticancer human tumor MDA-MB-468 cell line growth inhibition [PI3K];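 further: spheroids exposed to agents for seven days before readout; 100% = DMSO vehicle control viability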
# condition details: second compound 1 µM; first compound 10 µM; hits give low values
One number for each entry, in %.

Take a look at these entries with their results.
{"columns": ["compound", "endpoint name", "recorded measurement"],
 "data": [
  ["C=CC(=O)N1CCN(c2nc(=O)n(-c3c(C)ccnc3C(C)C)c3nc(-c4c(O)cccc4F)c(F)cc23)C(C)C1 (stereo not drawn) + CC(Nc1ncnc2nc[nH]c12)c1cc2cccc(Cl)c2c(=O)n1-c1ccccc1", "viability, T/C", 60.6],
  ["Cn1nccc1Nc1nccc(-c2ccn(C(CO)c3ccc(Cl)c(F)c3)c(=O)c2)n1 (stereo not drawn) + CC(Nc1ccc2c(c1)OCCn1cc(N3C(=O)OCC3C(F)F)nc1-2)C(N)=O", "viability, T/C", 55.2]
]}

*Q* Returns the measured viability, T/C for the input compound. Input: Cn1nccc1Nc1nccc(-c2ccn(C(CO)c3ccc(Cl)c(F)c3)c(=O)c2)n1 (stereo not drawn) + Cc1nc(NC(=O)N2CCCC2C(N)=O)sc1-c1ccnc(C(C)(C)C(F)(F)F)c1
*A* 53.9

----------
# Tested on: MDA-MB-468 spheroids with HUVEC/MSC, viability
# assay protocol: Anticancer human tumor MDA-MB-468 cell line growth inhibition [PI3K];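 further: spheroids exposed to agents for seven days before readout; 100% = DMSO vehicle control viability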
# condition details: second compound 0.0316 µM; first compound 0.001 µM; hits give low values
Kindly supply the reported viability, T/C values for the records listed here.
Numbers only, in %.

Worked cases, answers included:
{"columns": ["molecule", "system name", "viability, T/C [%]"],
 "data": [
  ["CC(C)n1nc(-c2ccc3oc(N)nc3c2)c2c(N)ncnc21 + Cc1nc(NC(=O)N2CCCC2C(N)=O)sc1-c1ccnc(C(C)(C)C(F)(F)F)c1", "MDA-MB-468 spheroids with HUVEC/MSC, viability", 82.8],
  ["CC(C)n1nc(-c2ccc3oc(N)nc3c2)c2c(N)ncnc21 + CC(Nc1ccc2c(c1)OCCn1cc(N3C(=O)OCC3C(F)F)nc1-2)C(N)=O", "MDA-MB-468 spheroids with HUVEC/MSC, viability", 94.8]
]}

Turning now to a further record.
*Q* Reported viability, T/C, molecule CC(C)n1nc(-c2ccc3oc(N)nc3c2)c2c(N)ncnc21 + COc1c(OCCCN2CCOCC2)ccc2c3n(c(=NC(=O)c4cnc(N)nc4)nc12)CCN3 : ____
*A* 84.4

----------
# Tested on: MDA-MB-468 spheroids with HUVEC/MSC, viability
# assay protocol: Anticancer human tumor MDA-MB-468 cell line growth inhibition [PI3K];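 further: spheroids exposed to agents for seven days before readout; 100% = DMSO vehicle control viability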
# condition details: second compound 0.1 µM; first compound 0.0316 µM; hits give low values
endpoint name: viability, T/C

{"columns": ["molecule", "viability, T/C"],
 "data": [
  ["CC(C)NCC(C(=O)N1CCN(c2ncnc3c2C(C)CC3O)CC1)c1ccc(Cl)cc1 (stereo not drawn) + CC(Nc1ncnc2nc[nH]c12)c1cc2cccc(Cl)c2c(=O)n1-c1ccccc1", "78.1%"],
  ["CC1(C)CCC(Nc2ncc(C(F)(F)F)c(-c3c[nH]c4c(P(C)(C)=O)c(C#N)ccc34)n2)CN1 (stereo not drawn) + CC(Nc1ccc2c(c1)OCCn1cc(N3C(=O)OCC3C(F)F)nc1-2)C(N)=O", "11.6%"]
]}

Now consider a different molecule.
*Q* Given the entry CCN1CCN(Cc2ccc(Nc3ncc(F)c(-c4cc(F)c5nc(C)n(C(C)C)c5c4)n3)nc2)CC1 + COc1c(OCCCN2CCOCC2)ccc2c3n(c(=NC(=O)c4cnc(N)nc4)nc12)CCN3 , what viability, T/C was observed with MDA-MB-468 spheroids with HUVEC/MSC, viability?
*A* 61.9%

Reference for the values: PubChem BioAssay AID1963960
